Measured values drawn from patent US20250296953A1 for this set.

Each record here notes measured Growth Percent.
- Tested on: 60 different human tumor cell lines
- TEST SUMMARY: NCI Development Therapeutics Program 60 cell line screen, one dose
- Format: cell-based
- EXPERIMENTAL SETUP: Ovarian Cancer, SK-OV-3
I only need the number, in %, no unit after it.

C[C@]12CCc3sc(NCCc4ccccc4)nc3C1=CC[C@@H]1[C@@H]2CC[C@]2(C)C(=O)CC[C@@H]12 | 111.53
C[C@]12CCc3nc(Nc4ccc(O)cc4)sc3C1=CC[C@@H]1[C@@H]2CC[C@]2(C)C(=O)CC[C@@H]12 | 107.77
C[C@]12CCc3sc(Nc4ccc(OC(F)(F)F)cc4)nc3C1=CC[C@@H]1[C@@H]2CC[C@]2(C)C(=O)CC[C@@H]12 | 69.90

Please look up its Growth Percent: C[C@]12CCc3sc(Nc4cccc(O)c4)nc3C1=CC[C@@H]1[C@@H]2CC[C@]2(C)C(=O)CC[C@@H]12
37.28

Please look up its Growth Percent: C[C@]12CCc3sc(Nc4ccc(F)cc4F)nc3C1=CC[C@@H]1[C@@H]2CC[C@]2(C)C(=O)CC[C@@H]12
84.10

Please look up its Growth Percent: C[C@]12CCc3nc(N)sc3C1=CC[C@@H]1[C@@H]2CC[C@]2(C)C(=NNC(N)=O)CC[C@@H]12
100.67

Please look up its Growth Percent: CN(c1ccccc1)c1nc2c(s1)CC[C@@]1(C)C2=CC[C@@H]2[C@@H]1CC[C@]1(C)C(=O)CC[C@@H]21
79.14

Please look up its Growth Percent: C[C@]12CC[C@H]3[C@@H](CC=C4c5sc(-c6ccc(O)cc6)nc5CC[C@@]43C)[C@@H]1CC[C@@H]2O
38.63

Please look up its Growth Percent: C[C@]12CC[C@H]3[C@@H](CC=C4c5sc(Nc6ccccc6)nc5CC[C@@]43C)[C@@H]1CC[C@@H]2O
89.65

---

Each record here notes measured CC50.
- System: gliosarcoma (SF-539)
- TEST SUMMARY: NCI 60 five dose screen
- EXPERIMENTAL SETUP: read-out: LC50; SF-539 (CNS Cancer), five dose
I only need the number, in µM, no unit after it.

C[C@]12CCc3nc(Nc4ccc(O)cc4)sc3C1=CC[C@@H]1[C@@H]2CC[C@]2(C)C(=O)CC[C@@H]12 | 7.34

Please look up its CC50: C[C@]12CCc3nc(N)sc3C1=CC[C@@H]1[C@@H]2CC[C@]2(C)C(=NNC(N)=O)CC[C@@H]12
19.8

---

- Test system: glioblastoma (SF-295)
- TEST SUMMARY: NCI 60 five dose screen
- EXPERIMENTAL SETUP: SF-295 (CNS Cancer), five dose
Each record here notes measured TGI.

# count of solved cases: 5
C[C@]12CCc3sc(NCCc4ccccc4)nc3C1=CC[C@@H]1[C@@H]2CC[C@]2(C)C(=O)CC[C@@H]12 [IIa.2] | >1.00E−4
C[C@]12CC[C@H]3[C@@H](CC=C4c5sc(-c6ccc(O)cc6)nc5CC[C@@]43C)[C@@H]1CC[C@@H]2O [III.5] | 2.03E−6
C[C@]12CCc3nc(N)sc3C1=CC[C@@H]1[C@@H]2CC[C@]2(C)C(=NNC(N)=O)CC[C@@H]12 [IVb.1] | 3.03E−6
C[C@]12CCc3nc(Nc4ccc(O)cc4)sc3C1=CC[C@@H]1[C@@H]2CC[C@]2(C)C(=O)CC[C@@H]12 [IIa.35] | 3.59E−5
C[C@]12CCc3sc(Nc4ccc(F)cc4F)nc3C1=CC[C@@H]1[C@@H]2CC[C@]2(C)C(=O)CC[C@@H]12 [IIa.10] | >1.00E−4

Please look up its TGI: C[C@]12CCc3sc(Nc4ccc(OC(F)(F)F)cc4)nc3C1=CC[C@@H]1[C@@H]2CC[C@]2(C)C(=O)CC[C@@H]12 [IIa.19]
2.44E−6

Please look up its TGI: C[C@]12CCc3sc(Nc4cccc(O)c4)nc3C1=CC[C@@H]1[C@@H]2CC[C@]2(C)C(=O)CC[C@@H]12 [IIa.17]
>1.00E−4

Please look up its TGI: C[C@]12CC[C@H]3[C@@H](CC=C4c5sc(Nc6ccccc6)nc5CC[C@@]43C)[C@@H]1CC[C@@H]2O [IIIa.10]
2.98E−6
